experimental.system: T1, HLA-A*0101 (purified HLA class I molecule) (human)
T1 construct: also called HLA-A1
protocol.notes: competition with 125I-labelled standard peptide on purified HLA-A*0101, gel filtration
reported.property: relative binding ratio (IC50 of standard peptide / IC50 of test peptide)
Write the numeric value and append its unit.

Guide cases for relative binding ratio (IC50 of standard peptide / IC50 of test peptide), answers given:
{"binder": "RLLDIDETEY [HER2/neu peptide, position 868, 10 amino acids]", "result": "1.3 ratio"}
{"binder": "CSKPCARVCY [HER2/neu peptide, position 334, 10 amino acids]", "result": "0.0016 ratio"}
{"binder": "PSGVKPDLSY [HER2/neu peptide, position 601, 10 amino acids]", "result": "0.001 ratio"}

Okay, next one:
Entry ETHLDMLRHLY (also called Her2/neu.40) [HER2/neu peptide, position 40, 11 amino acids] : reported relative binding ratio (IC50 of standard peptide / IC50 of test peptide) = ?
0.28 ratio
